Target: porcine pancreatic amylase (Sus scrofa)
Construct: purchased Sigma-Aldrich
Sequence (P00690 16-511): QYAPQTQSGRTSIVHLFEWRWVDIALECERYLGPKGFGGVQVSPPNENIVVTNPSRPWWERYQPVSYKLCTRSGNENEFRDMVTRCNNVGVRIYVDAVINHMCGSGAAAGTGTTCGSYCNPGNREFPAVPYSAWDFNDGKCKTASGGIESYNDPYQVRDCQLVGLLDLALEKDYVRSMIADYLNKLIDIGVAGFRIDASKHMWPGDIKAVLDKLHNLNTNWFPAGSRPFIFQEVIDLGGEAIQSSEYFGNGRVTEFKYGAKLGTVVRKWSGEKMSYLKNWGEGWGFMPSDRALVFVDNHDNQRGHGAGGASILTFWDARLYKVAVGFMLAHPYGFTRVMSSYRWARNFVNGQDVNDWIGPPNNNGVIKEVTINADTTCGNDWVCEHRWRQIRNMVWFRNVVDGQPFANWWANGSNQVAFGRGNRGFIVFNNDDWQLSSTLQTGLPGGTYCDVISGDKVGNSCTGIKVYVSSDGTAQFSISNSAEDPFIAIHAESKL
Experiment: biochemical
From the text: Anti-GAPDH antibody and enhanced chemiluminescence reagents were purchased from Santa Cruz Biotechnology (Santa Cruz, CA, USA); horseradish peroxidase-conjugated secondary antibody was purchased from Amersham Biosciences (Pittsburgh, PA, USA). Nitrocellulose was purchased from Biorad (Hercules, CA, USA). […]
assay_metric: IC50 (µM)
Form entry: value (µM) — number only.

[ask] GET IC50 where system = porcine pancreatic amylase (Sus scrofa) and item = Cc1ccc(C(C)C)cc1
[reply] 1600
